The reported numbers originate from patent US11459335B2.

# pKd listing for each entry below
Target: CRBN-DDB1 (Homo sapiens (Human))
Sequence (Q96SW2 whole entry): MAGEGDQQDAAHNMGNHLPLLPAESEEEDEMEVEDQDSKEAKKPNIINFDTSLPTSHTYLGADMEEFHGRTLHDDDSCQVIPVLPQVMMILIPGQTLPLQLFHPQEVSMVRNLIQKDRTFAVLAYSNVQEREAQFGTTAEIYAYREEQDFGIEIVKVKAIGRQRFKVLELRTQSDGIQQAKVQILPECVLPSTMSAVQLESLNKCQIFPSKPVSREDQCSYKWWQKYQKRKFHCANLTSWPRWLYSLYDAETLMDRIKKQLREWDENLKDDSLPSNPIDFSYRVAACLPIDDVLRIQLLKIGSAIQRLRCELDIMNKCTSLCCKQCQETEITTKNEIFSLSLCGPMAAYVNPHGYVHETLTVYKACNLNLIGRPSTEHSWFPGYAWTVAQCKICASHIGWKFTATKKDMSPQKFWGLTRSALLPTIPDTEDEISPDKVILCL
Sequence (Q16531 whole entry partner): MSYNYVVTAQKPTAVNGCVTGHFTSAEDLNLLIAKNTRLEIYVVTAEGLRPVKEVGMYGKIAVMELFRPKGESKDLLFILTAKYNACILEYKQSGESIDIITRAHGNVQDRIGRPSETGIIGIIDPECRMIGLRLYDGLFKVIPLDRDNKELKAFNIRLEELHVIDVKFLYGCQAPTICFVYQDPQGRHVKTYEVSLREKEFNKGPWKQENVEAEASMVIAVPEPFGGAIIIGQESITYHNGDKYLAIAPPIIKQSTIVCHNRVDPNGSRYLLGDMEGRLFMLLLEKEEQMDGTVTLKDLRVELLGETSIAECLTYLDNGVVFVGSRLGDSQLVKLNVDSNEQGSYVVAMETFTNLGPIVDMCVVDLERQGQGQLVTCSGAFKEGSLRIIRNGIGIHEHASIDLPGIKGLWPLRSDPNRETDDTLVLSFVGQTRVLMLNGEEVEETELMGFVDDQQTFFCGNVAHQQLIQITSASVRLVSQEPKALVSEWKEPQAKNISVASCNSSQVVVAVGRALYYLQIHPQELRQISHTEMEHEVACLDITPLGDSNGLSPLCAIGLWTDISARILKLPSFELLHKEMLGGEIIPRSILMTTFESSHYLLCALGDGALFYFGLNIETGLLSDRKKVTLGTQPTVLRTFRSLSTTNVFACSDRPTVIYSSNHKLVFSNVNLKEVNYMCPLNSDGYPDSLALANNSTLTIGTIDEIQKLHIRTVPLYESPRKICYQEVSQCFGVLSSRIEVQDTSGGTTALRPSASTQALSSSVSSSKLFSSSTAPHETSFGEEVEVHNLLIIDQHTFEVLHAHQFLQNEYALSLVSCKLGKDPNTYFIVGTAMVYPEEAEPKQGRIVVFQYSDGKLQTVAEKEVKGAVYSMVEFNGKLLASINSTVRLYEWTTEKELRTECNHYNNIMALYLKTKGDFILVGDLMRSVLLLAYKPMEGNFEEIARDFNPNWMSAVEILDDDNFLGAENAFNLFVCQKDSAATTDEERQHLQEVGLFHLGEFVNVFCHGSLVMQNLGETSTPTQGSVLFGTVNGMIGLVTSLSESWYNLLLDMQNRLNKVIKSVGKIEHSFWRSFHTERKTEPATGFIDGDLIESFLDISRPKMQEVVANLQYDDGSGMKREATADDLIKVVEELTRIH
Assay: Fluorescence polarization (FP) assay for compound ligand binding to CRBN-DDB1
Conditions: FP displacement of (−)-Thalidomide-Alexa Fluor or Pomalidomide-fluorescein probe (5 nM), 400 nM CRBN-DDB1, 60 min room temperature; Additional Compounds of the Present Invention
pKd: −log10 of the molar value.

CC(C)(C)OC(=O)N1CCN(c2ccc(NC3CCC(=O)NC3=O)cn2)CC1 (stereo not drawn) [Compound 156]
4.30 to 5.00
CC(=O)c1cc(C)ccc1OC1CCC(=O)NC1=O (stereo not drawn) [Compound 146]
4.00 to 4.30
O=C1CCC(Nc2ccc(N3CCNCC3)nc2)C(=O)N1 (stereo not drawn) [Compound 158]
4.30 to 5.00

Supply recorded pKd for O=C1CCC(Oc2ccccc2)C(=O)N1 (stereo not drawn) [Compound 129] here. 4.30 to 5.00

State its pKd for this compound: CS(=O)(=O)c1cccc(OC2CCC(=O)NC2=O)c1 (stereo not drawn) [Compound 144] 4.30 to 5.00

Report pKd for CC(=O)c1ccccc1OC1CCC(=O)NC1=O (stereo not drawn) [Compound 153] 4.00 to 4.30

Please give the documented pKd of CN1CCN(c2ccc(OC3CCC(=O)NC3=O)cc2)CC1 (stereo not drawn) [Compound 130] 4.30 to 5.00
